biological target: MMP9 (Homo sapiens, UniProt P14780); test: MMP-9 colorimetric inhibition assay (Enzo kit BML-AK410); assay type: biochemical; conditions: thiopeptide substrate, absorbance 415 nm; read-out: MMP 9 IC50 class
Sequence (P14780 94-707): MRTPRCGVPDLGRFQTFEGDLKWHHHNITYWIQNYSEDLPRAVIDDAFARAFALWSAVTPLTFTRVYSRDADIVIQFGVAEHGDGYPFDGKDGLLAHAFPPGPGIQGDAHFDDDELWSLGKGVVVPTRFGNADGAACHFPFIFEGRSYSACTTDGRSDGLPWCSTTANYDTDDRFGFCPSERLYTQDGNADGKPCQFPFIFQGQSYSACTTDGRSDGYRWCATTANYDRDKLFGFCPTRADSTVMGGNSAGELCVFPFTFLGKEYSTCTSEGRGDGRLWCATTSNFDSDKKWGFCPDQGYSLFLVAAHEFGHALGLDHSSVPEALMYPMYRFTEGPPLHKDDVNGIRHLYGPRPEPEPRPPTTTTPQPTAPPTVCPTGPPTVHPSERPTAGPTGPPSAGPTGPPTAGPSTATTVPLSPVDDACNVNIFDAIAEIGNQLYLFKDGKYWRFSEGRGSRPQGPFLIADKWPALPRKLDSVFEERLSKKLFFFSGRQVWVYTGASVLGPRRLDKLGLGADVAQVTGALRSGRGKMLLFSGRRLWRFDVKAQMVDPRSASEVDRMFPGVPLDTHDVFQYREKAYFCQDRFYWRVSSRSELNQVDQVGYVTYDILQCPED
Reported IC50 values are given for each entry in this list.

// known answers, use as guide
| input_smiles | IC50 |
| --- | --- |
| CC(C)C(=O)N1[C@@H]2CC[C@H]1[C@H](C(=O)NO)N(S(=O)(=O)c1ccc(Oc3ccc(OC(F)(F)F)cc3)nc1)C2 | < 50 nM |
| CCOC(=O)N1[C@@H]2CC[C@H]1[C@H](C(=O)NO)N(S(=O)(=O)N1CCC(Oc3ccnc(C(F)(F)F)c3)CC1)C2 | 50 to 1000 nM |
| CN1CCN(C(=O)N2[C@@H]3CC[C@H]2[C@H](C(=O)NO)N(S(=O)(=O)c2ccc(Oc4ccc(F)cc4)nc2)C3)CC1 | 50 to 1000 nM |

**Q:** Item: "CCC(=O)N1[C@@H]2CC[C@H]1[C@H](C(=O)NO)N(S(=O)(=O)c1ccc(Oc3ccc(OC(F)(F)F)cc3)nc1)C2" Test system: MMP9 (Homo sapiens, UniProt P14780) Read-out: IC50 Value: ?
**A:** < 50 nM

**Q:** Next up: "COCCOC(=O)N1[C@@H]2CC[C@H]1[C@H](C(=O)NO)N(S(=O)(=O)c1ccc(Oc3ccc(F)cc3)cn1)C2"
**A:** < 50 nM

**Q:** For "CCN1CCC(Oc2ccc(S(=O)(=O)N3C[C@H]4CC[C@@H]([C@@H]3C(=O)NO)N4C(=O)OCCOC)cn2)CC1" then?
**A:** 1000 to 10000 nM

* * *

target: ADAM17 (TACE) (Homo sapiens); test: TACE fluorometric inhibition assay (Enzo kit BML-AK310); type: biochemical; conditions: quenched fluorogenic peptide, ex/em 320/420 nm; read-out: TACE IC50 class
Sequence (P78536 215-477 limits assumed): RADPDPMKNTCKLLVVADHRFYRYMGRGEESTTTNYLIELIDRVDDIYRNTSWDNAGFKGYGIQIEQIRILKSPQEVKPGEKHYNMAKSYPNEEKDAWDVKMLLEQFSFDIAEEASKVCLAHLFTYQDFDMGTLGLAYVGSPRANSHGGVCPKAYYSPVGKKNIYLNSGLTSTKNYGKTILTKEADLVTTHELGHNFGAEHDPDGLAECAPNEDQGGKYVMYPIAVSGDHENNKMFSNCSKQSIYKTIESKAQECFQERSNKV
pIC50: −log10 of the molar value.
metric: pIC50

Example cases with answers are listed next.
| input_smiles | reported |
| --- | --- |
| COCCOC(=O)N1[C@@H]2CC[C@H]1[C@H](C(=O)NO)N(S(=O)(=O)c1ccc(Oc3cncc(F)c3)nc1)C2 | 5.00 to 6.00 |
| COCCOC(=O)N1[C@@H]2CC[C@H]1[C@H](C(=O)NO)N(S(=O)(=O)c1ccc(Oc3ccc(OC)c(F)c3)nc1)C2 | 5.00 to 6.00 |
| COCCOC(=O)N1[C@@H]2CC[C@H]1[C@H](C(=O)NO)N(S(=O)(=O)c1ccc(Oc3ccc(C)cc3)nc1)C2 | 5.00 to 6.00 |

**Q:** Query for ADAM17 (TACE) (Homo sapiens): what pIC50 does the record show for "CCc1ccc(Oc2ccc(S(=O)(=O)N3C[C@H]4CC[C@@H]([C@@H]3C(=O)NO)N4C(=O)OCCOC)cn2)cc1" ?
**A:** 5.00 to 6.00

**Q:** Also check "COCCOC(=O)N1[C@@H]2CC[C@H]1[C@H](C(=O)NO)N(S(=O)(=O)c1ccc(Oc3ccc(Cl)c(F)c3)nc1)C2"
**A:** 6.00 to 7.30

**Q:** Input "COCCOC(=O)N1[C@@H]2CC[C@H]1[C@H](C(=O)NO)N(S(=O)(=O)c1ccc(Oc3ccc(OC)cc3)nc1)C2"
**A:** 5.00 to 6.00

**Q:** How about this compound: "CN(C)C(=O)CN1[C@@H]2CC[C@H]1[C@H](C(=O)NO)N(S(=O)(=O)c1ccc(Oc3ccc(F)cc3)nc1)C2"
**A:** < 5.00

**Q:** Now the same for "COCCOC(=O)N1[C@@H]2CC[C@H]1[C@H](C(=O)NO)N(S(=O)(=O)N1CCC(Oc3ccc(F)cc3)CC1)C2"
**A:** 6.00 to 7.30

**Q:** Okay, and "COCCOC(=O)N1[C@@H]2CC[C@H]1[C@H](C(=O)NO)N(S(=O)(=O)N1CCN(Cc3ccc(Cl)cc3)CC1)C2" ?
**A:** 5.00 to 6.00

**Q:** Could you do the same for "COCCOC(=O)N1[C@@H]2CC[C@H]1[C@H](C(=O)NO)N(S(=O)(=O)c1ccc(Oc3ccc(OC(C)C)cc3)nc1)C2" , please?
**A:** 5.00 to 6.00

**Q:** What do you get for "COCCOC(=O)N1[C@@H]2CC[C@H]1[C@H](C(=O)NO)N(S(=O)(=O)c1ccc(Oc3nc4cc(Cl)ccc4o3)c(F)c1)C2" ?
**A:** 5.00 to 6.00

**Q:** And the next one, "COCCOC(=O)N1[C@@H]2CC[C@H]1[C@H](C(=O)NO)N(S(=O)(=O)c1ccc(OC3CCCCC3)nc1)C2" ?
**A:** 5.00 to 6.00

* * *

Target: MMP2 (Homo sapiens, UniProt P08253)
Sequence (P08253 110-660): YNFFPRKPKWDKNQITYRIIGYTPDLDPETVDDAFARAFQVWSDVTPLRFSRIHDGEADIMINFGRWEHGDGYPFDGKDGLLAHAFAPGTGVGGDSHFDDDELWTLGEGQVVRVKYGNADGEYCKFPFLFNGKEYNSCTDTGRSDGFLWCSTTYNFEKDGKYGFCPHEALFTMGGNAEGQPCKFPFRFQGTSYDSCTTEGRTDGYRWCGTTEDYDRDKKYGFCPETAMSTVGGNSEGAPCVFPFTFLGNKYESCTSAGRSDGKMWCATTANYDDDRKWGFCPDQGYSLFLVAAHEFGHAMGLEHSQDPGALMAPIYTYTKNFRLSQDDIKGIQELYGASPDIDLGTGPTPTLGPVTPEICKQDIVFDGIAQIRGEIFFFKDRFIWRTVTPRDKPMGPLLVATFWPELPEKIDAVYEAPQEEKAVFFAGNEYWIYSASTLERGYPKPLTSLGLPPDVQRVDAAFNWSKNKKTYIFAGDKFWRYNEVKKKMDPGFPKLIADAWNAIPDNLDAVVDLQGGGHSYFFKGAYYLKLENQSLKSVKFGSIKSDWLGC
Assay: MMP-2 colorimetric inhibition assay (Enzo kit BML-AK408)
Type: biochemical
Settings: thiopeptide substrate, absorbance 415 nm; read-out: MMP 2 IC50 class
metric: IC50

**Q:** IC50 lookup needed for "CN(C)C(=O)CN1[C@@H]2CC[C@H]1[C@H](C(=O)NO)N(S(=O)(=O)c1ccc(Oc3ccc(F)cc3)nc1)C2" , thanks.
**A:** < 0.05 µM

**Q:** Try this compound too: "COCCOC(=O)N1[C@@H]2CC[C@H]1[C@H](C(=O)NO)N(S(=O)(=O)N1CCC(Oc3ccc(Cl)cc3)CC1)C2"
**A:** < 0.05 µM

**Q:** Queued: "COCCOC(=O)N1[C@@H]2CC[C@H]1[C@H](C(=O)NO)N(S(=O)(=O)c1ccc(Oc3ccc(F)c(F)c3)nc1)C2"
**A:** < 0.05 µM

**Q:** Could you do the same for "COCCOC(=O)N1[C@@H]2CC[C@H]1[C@H](C(=O)NO)N(S(=O)(=O)c1ccc(Oc3nc4cc(Cl)ccc4o3)c(F)c1)C2" , please?
**A:** > 10 µM

**Q:** Input "CC(=O)N1[C@@H]2CC[C@H]1[C@H](C(=O)NO)N(S(=O)(=O)N1CCC(Oc3ccnc(C(F)(F)F)c3)CC1)C2"
**A:** 0.05 to 1 µM

**Q:** Quick one: "COCCOC(=O)N1[C@@H]2CC[C@H]1[C@H](C(=O)NO)N(S(=O)(=O)c1ccc(Oc3cnn(-c4ccccc4)c3)nc1)C2"
**A:** < 0.05 µM

**Q:** Same for "CC(C)Oc1ccc(Oc2ccc(S(=O)(=O)N3C[C@H]4CC[C@@H]([C@@H]3C(=O)NO)N4C(=O)N3CCOCC3)cn2)cc1"
**A:** < 0.05 µM

* * *

target: ADAM17 (TACE) (Homo sapiens); assay: TACE fluorometric inhibition assay (Enzo kit BML-AK310); type: biochemical; settings: quenched fluorogenic peptide, ex/em 320/420 nm; read-out: TACE IC50 class
metric: IC50

| input_smiles | target_of_assay | reported |
| --- | --- | --- |
| COCCOC(=O)N1[C@@H]2CC[C@H]1[C@H](C(=O)NO)N(S(=O)(=O)N1CCC(Oc3ccc(Cl)cc3)CC1)C2 | ADAM17 (TACE) (Homo sapiens) | < 0.05 µM |
| COCCOC(=O)N1[C@@H]2CC[C@H]1[C@H](C(=O)NO)N(S(=O)(=O)c1ccc(Oc3cnn(-c4ccc(F)cc4)c3)nc1)C2 | ADAM17 (TACE) (Homo sapiens) | 0.05 to 1 µM |
| CC(=O)N1[C@@H]2CC[C@H]1[C@H](C(=O)NO)N(S(=O)(=O)c1ccc(Oc3ccc(OC(C)C)cc3)nc1)C2 | ADAM17 (TACE) (Homo sapiens) | > 10 µM |
| COCCOC(=O)N1[C@@H]2CC[C@H]1[C@H](C(=O)NO)N(S(=O)(=O)N1CCC(Oc3ccc(C(F)(F)F)cc3)CC1)C2 | ADAM17 (TACE) (Homo sapiens) | < 0.05 µM |
| COCCOC(=O)N1[C@@H]2CC[C@H]1[C@H](C(=O)NO)N(S(=O)(=O)c1ccc(Oc3ccc(OC(F)(F)F)cc3)nc1)C2 | ADAM17 (TACE) (Homo sapiens) | 1 to 10 µM |

**Q:** Could you tell me which IC50 is on file for "O=C(NO)[C@H]1[C@@H]2CC[C@H](CN1S(=O)(=O)c1ccc(Oc3ccc(F)cc3)nc1)N2CC(=O)N1CCCC1" ?
**A:** > 10 µM

**Q:** Thanks! And "COCCOC(=O)N1[C@@H]2CC[C@H]1[C@H](C(=O)NO)N(S(=O)(=O)c1ccc(OC3CCOCC3)nc1)C2" ?
**A:** 1 to 10 µM
